Assign normalised response to each entry below.
system: HCC1937; assay: normalised response (% of control), CellTiter-Glo; higher = more viable cells (100 = DMSO, 0 = benzethonium chloride kill control); conditions: incubation time: 72 h
Give bare numbers, in %.

For orientation, consider the following solved cases.
Look up normalised response: CCS(=O)(=O)c1cccc(-c2cc(C(=O)NC3CCN(C)CC3)c(C)c3[nH]c4ncc(C)cc4c23)c1 [TAK-901] (10 nM)
93.4

Repeat with C[C@@H]1CCN(C(=O)CC#N)C[C@@H]1N(C)c1ncnc2[nH]ccc12 [Tofacitinib] (50 nM)
96.5

Repeat with CS(=O)(=O)OCCCCOS(C)(=O)=O [Busulfan] (1000 nM)
96.2

Repeat with COc1ncc(-c2ccc3nccc(-c4ccnnc4)c3c2)cc1NS(=O)(=O)c1ccc(F)cc1F (10 nM)
78.7

// for each molecule in input: emit normalised response
1. CN(c1ccccc1CNc1nc(Nc2ccc3c(c2)CC(=O)N3)ncc1C(F)(F)F)S(C)(=O)=O (100 nM)
2. COC1=CC(c2cc3ccccc3[nH]2)=N/C1=C\c1[nH]c(C)cc1C [Obatoclax] (100 nM)
3. FC(F)c1nc2ccccc2n1-c1nc(N2CCOCC2)nc(N2CCOCC2)n1 [ZSTK474] (100 nM)
4. COc1ccc(C2=N[C@@H](c3ccc(Cl)cc3)[C@@H](c3ccc(Cl)cc3)N2C(=O)N2CCNC(=O)C2)c(OC(C)C)c1 [Nutlin-3] (100 nM)
5. Cn1c(=O)c(F)c(Nc2ccc(I)cc2F)c2c(=O)n(C[C@@H](O)CO)cnc21 [TAK-733] (10 nM)
6. CS(=O)(=O)CCNCc1ccc(-c2ccc3ncnc(Nc4ccc(OCc5cccc(F)c5)c(Cl)c4)c3c2)o1 [Lapatinib] (10 nM)

1. 96.5
2. 91.3
3. 87.7
4. 95.4
5. 88
6. 99.2

// for each molecule in input: emit normalised response
1. Nc1nccc(-c2c(-c3ccc(F)cc3)ncn2C2CCCCC2)n1 (100 nM)
2. COc1cc(Nc2ncc(F)c(Nc3ccc4c(n3)NC(=O)C(C)(C)O4)n2)cc(OC)c1OC [Tamatinib] (100 nM)
3. CC(C)C[C@H](NC(=O)[C@H](Cc1ccccc1)NC(=O)c1cnccn1)B(O)O [Bortezomib] (10 nM)
4. COC(=O)C[C@](O)(CCCC(C)(C)O)C(=O)O[C@@H]1C(OC)=C[C@]23CCCN2CCc2cc4c(cc2[C@H]13)OCO4 [Omacetaxine] (100 nM)

102
103
64.8
41.1

* * *

system: MDA-MB-468; assay: normalised viability (% of control), CellTiter-Blue; higher = more viable cells (about 100 = DMSO control); details: 1000 nM; incubation time: 72 h
Assign normalised viability to each entry below.
Give bare numbers, in %.

Look up normalised viability: CC(C)C[C@H](NC(=O)[C@H](Cc1ccccc1)NC(=O)c1cnccn1)B(O)O [Bortezomib]
2.21

Repeat with CCCC(CCC)C(=O)O [Valproic acid]
117

// for each compound in input: emit normalised viability
1. COc1ccc(C2=N[C@@H](c3ccc(Cl)cc3)[C@@H](c3ccc(Cl)cc3)N2C(=O)N2CCNC(=O)C2)c(OC(C)C)c1 [Nutlin-3]
2. COc1ncc(-c2ccc3nccc(-c4ccnnc4)c3c2)cc1NS(=O)(=O)c1ccc(F)cc1F
3. C#Cc1cccc(Nc2ncnc3cc(OC)c(OCCCCCCC(=O)NO)cc23)c1 [CUDC-101]
4. CCOc1cc2ncc(C#N)c(Nc3ccc(OCc4ccccn4)c(Cl)c3)c2cc1NC(=O)/C=C/CN(C)C [Neratinib]
5. Cn1c(=O)c(F)c(Nc2ccc(I)cc2F)c2c(=O)n(C[C@@H](O)CO)cnc21 [TAK-733]
6. c1ccc(C2CN3CCSC3=N2)cc1 (centres undefined) [Tetramisole]
7. COc1cccc2c1C(=O)c1c(O)c3c(c(O)c1C2=O)C[C@@](O)(C(C)=O)C[C@@H]3O[C@H]1C[C@H](N)[C@H](O)[C@H](C)O1 [Daunorubicin]

[104, 7.54, 25.5, 106, 95, 106, 6.86]
